System: UO-31 renal
Assay: NCI tumour cell line growth inhibition, 48 h

compound	TGI
Cc1[nH]c2ccccc2c1C1Cc2ccccc2N1C(=O)/C=C/C=C/c1ccccc1 (configuration not stated)	> 100 µM
Cc1ccc(/C(O)=C/c2nc3ccccc3oc2=O)cc1	> 100 µM
COc1ccc(C[C@@H]2Cc3cc(OC)c(OC)cc3CN2C)cc1	> 100 µM
C[C@H]1O[C@@H](c2c(O)ccc3ccccc23)C[C@@H](N(C)C)C1O (some centres not stated)	> 100 µM
CCCCCCC(=O)OC[n+]1ccc2c(C)c3[nH]c4ccccc4c3c(C)c2c1	26 µM
COc1cccc2c1CCc1ccccc1CC2=O	> 100 µM
CC1=NN(C(=O)CC(=O)Nc2ccccc2C)C(=O)C1N=Nc1ccc(C(=O)O)cc1 (configuration not stated)	> 100 µM
CC(C)CNC(=O)CCc1cccc2c1oc1c(CCN)cccc12	25.2 µM
C/C(CC(=O)Nc1ccc(Cl)c(Cl)c1)=N/NC(=O)C[n+]1ccccc1	> 100 µM
O=c1/c(=C/c2cccc([N+](=O)[O-])c2)sc2nc3ccccc3n12	> 100 µM
O=C(O)CNC(=O)CO/N=C1/C(c2c(O)[nH]c3ccccc23)=Nc2ccccc21	> 100 µM
O=c1[nH]c(Nc2ccc(F)c(Cl)c2)nc2nc[nH]c12	> 100 µM
C=CCCC(OCOCCOC)c1cc(C)c(O[Si](C)(C)C(C)(C)C)c(C)c1 (configuration not stated)	23.9 µM
CN(C)c1ccc(/C=C2/SC(=S)NC2=O)cc1	> 100 µM
C/C=C(\C)C(=O)N[C@H]1CC[C@]2(C)C3CC[C@@]4(C)C(CC[C@@H]4C(C)N(C)C)C3CCC2[C@H]1OC(C)=O (some centres not stated)	2.54 µM
CC1=C(C)C(=O)O[C@@H]([C@](C)(O)[C@]2(O)CC[C@@]3(O)[C@@H]4C[C@H]5O[C@]56[C@@H](O)C=CC(=O)[C@]6(C)[C@H]4CC[C@]23C)C1	6.36 µM
COC(=O)Nc1nc2ccc(Oc3ccc(NC(=O)Nc4cccc(C(=O)O)c4)cc3)cc2[nH]1	> 25 µM

###

Tested on: IGROV1 ovarian
Experiment: NCI tumour cell line growth inhibition, 48 h
Short version: TGI at least 40 µM is y, less is n.

compound	label-class
CCOC(=O)/C(O)=C(/c1n[nH]c(=O)c2ccccc12)[N+](=O)[O-]	y
Cc1ccc(/C(O)=C/c2nc3ccccc3oc2=O)cc1	y
S=C1SC(=Nc2ccccc2)C(=Nc2ccccc2)N1c1ccccc1	y
COc1cc(O)cc(/C=C/c2ccc(O)cc2)c1	y
COc1ccc(CCN2C(=O)C=CC2=O)cc1OC	n
CC(=O)OC1CCN(C(=O)c2ccccc2)CC1CC1(c2cc3ccccc3[nH]2)OCCO1 (centres undefined)	y
C/C(=C\C(C)COCc1ccccc1)[C@H](COCc1ccccc1)OCc1ccccc1 (some centres undefined)	y
COc1cc(C2=NN(C)C(c3ccc([N+](=O)[O-])o3)C2)cc(OC)c1OC (centres undefined)	y
COc1ccc(N(CC(=O)NCCC[Te]c2ccccc2)C(=O)c2ccccc2)cc1	n
Cc1c(Cl)ccc2c1NC(=O)C2(O)C(C(=O)c1ccccc1)c1ccccc1 (centres undefined)	y
CCC[CH2][Sn]1([CH2]CCC)[O]C(=O)c2cc(I)cc(I)c2[O]1	n
COc1cc2c(cc1OCCCOc1cc(-c3ccc(F)cc3)nc(C)n1)N=C[C@@H]1CCCN1C2=O	y
CC(C)CNC(=O)CCc1cccc2c1oc1c(CCN)cccc12	n
CCN(CC)CC(=O)Nc1c(C(N)=O)nnn1Cc1cc(Cl)c(C(=O)c2ccc(Cl)cc2)c(Cl)c1	y

###

System: BT-549 breast
Test: NCI tumour cell line growth inhibition, 48 h
attribute-measured: TGI

structure	observed-value
O=C(Nc1cc(C(=O)Nc2cccc(S(=O)(=O)O)c2)cc(C(=O)Nc2cccc(S(=O)(=O)O)c2)c1)c1cccc(C(=O)Nc2cc(C(=O)Nc3cccc(S(=O)(=O)O)c3)cc(C(=O)Nc3cccc(S(=O)(=O)O)c3)c2)c1	> 100 µM
O=c1[nH]c(Nc2ccc(F)c(Cl)c2)nc2nc[nH]c12	> 100 µM
Cc1ccc(/C(O)=C/c2nc3ccccc3oc2=O)cc1	> 100 µM

###

System: TK-10 renal
Test: NCI tumour cell line growth inhibition, 48 h
Reported TGI values are given for each entry in this list.
attribute-measured: TGI

compound	observed-value
CCOC(=O)c1ccc(Nc2nc3cc(C(F)(F)F)ccc3nc2-c2ccccc2)cc1	> 10 µM
CCOc1ccc(N=NC2C(=O)N(C(=O)CC(=O)Nc3ccccc3OC)N=C2C)cc1 (stereo not drawn)	> 52.3 µM
Cc1nc2c(n1CCO)C(=O)c1ccccc1C2=O	> 100 µM
CCCCCCCC1(N=[N+]=[N-])C(=O)c2ccccc2N(C)C1=O (stereo not drawn)	> 100 µM
CC(=N/NC(=S)N1CCCCC1)/C(=N\NC(=S)N1CCCCC1)c1ccccc1	3.21 µM
COc1ccc(-c2[nH]c3ccccc3c2C=C(C#N)C#N)cc1	> 71.7 µM
COc1ccc(N2C(=O)C3c4[nH]c5ccc(OC)cc5c4C4CCC(C(C)(C)C)CC4C3C2=O)cc1 (stereo not drawn)	> 100 µM
Cc1ccc(NC(=O)CCC(CC(=O)C(C)(C)C)=NNC(=O)C(=O)NN)cc1C	> 100 µM
O=S(=O)(/C=C/c1ccc(Cl)cc1Cl)Cc1ccccc1CS(=O)(=O)/C=C/c1ccc(Cl)cc1Cl	> 100 µM
Cc1c(Cl)ccc2c1NC(=O)C2(O)C(C(=O)c1ccccc1)c1ccccc1 (stereo not drawn)	> 100 µM
COc1cc2c3c(n(CCCCOC(=O)C(F)(F)F)c(=O)c2cc1OC)-c1cc2c(cc1C3=O)OCO2	> 100 µM
CN(C)c1ccc(/C=C2/SC(=S)NC2=O)cc1	53 µM
CCCN(CCCCC(NC(C)=O)C(=O)NCc1ccccc1)C(=O)N(C)N=O (stereo not drawn)	> 100 µM
CN(C)c1ccc(-c2cc(=O)c3cc4c(cc3[nH]2)OCO4)cc1	> 100 µM
N#C/C(=C\c1ccc(-c2ccc(Cl)cc2)o1)C(=O)Nc1ncc(Cc2ccc(Cl)cc2)s1	3.71 µM
O=C(O)CN1CCNCCN(CP(=O)(O)O)CC1	> 100 µM
N#C[S-].[Nd+3].c1cnc2c(c1)ccc1cccnc12.c1cnc2c(c1)ccc1cccnc12.c1cnc2c(c1)ccc1cccnc12	22 µM
COC(=O)Nc1nc2ccc(Oc3ccc(NC(=O)Nc4cccc(C(=O)O)c4)cc3)cc2[nH]1	> 25 µM
COc1cc(/C=C2/C(=O)N(C(=O)OC(C)C)C(Cc3cc(OC)c(OC)c(C)c3OC)C(=O)N2Cc2ccccc2)c(OC)c(C)c1OC (stereo not drawn)	> 100 µM
O=[N+]([O-])C(Cl)C(Cl)C(Cl)=C(Cl)Cl (stereo not drawn)	39.4 µM
Cc1ccccc1C1CC(=O)CC(c2ccccc2C)C12C(=O)NC(=O)NC2=O (stereo not drawn)	> 100 µM
COc1cc(O)c2c(O)c3c(c4c2c1[C@]1(C4)C(C)=CCCC1(C)C)[C@H](O)[C@@]1(O)CC(=O)C(C(N)=O)=C(O)[C@@]1(O)C3=O	1.18 µM
C#CCOC(=O)c1ccccc1O	> 100 µM
Cc1nn(-c2nc3ccccc3s2)c(C)c1Oc1ccccc1O	31.9 µM
Cn1c2ccccc2c2c(-c3ccccc3)[n+]3ccccc3nc21	85 µM
COCc1nc2c(OC)cc(-c3nc4nc(N5CCN(C)CC5)ccc4[nH]3)c(OC)c2[nH]1	> 100 µM
COc1ccc(C(=O)C(c2ccc(OC)cc2)C2(O)C(=O)Nc3ccccc32)cc1 (stereo not drawn)	> 100 µM
COc1cc(-c2nc(Nc3nc4ccccc4[nH]3)nc(N)c2C#N)cc(OC)c1OC	> 100 µM

###

Reported TGI is given for each of the following molecules.
Tested on: SF-295 CNS
Assay: NCI tumour cell line growth inhibition, 48 h

molecule	TGI
Cn1c2ccccc2c2c(-c3ccccc3)[n+]3ccccc3nc21	> 100 µM
CC1Cc2c(Br)nc(N)nc2NC1=O (stereo not drawn)	> 100 µM
Cc1cc(NS(=O)(=O)c2ccc(N=Nc3cc(N=Nc4ccc(S(=O)(=O)Nc5cc(C)nc(C)n5)cc4)c4c(NC(=O)C(Cl)Cl)cccc4c3OC(=O)C(Cl)Cl)cc2)nc(C)n1 (tested in a mixture with another compound)	77.6 µM

###

Test system: HCT-116 colon
Assay: NCI tumour cell line growth inhibition, 48 h
attribute-measured: TGI (µM)

structure	quantity-unit	readout-relation	observed-value
O=C1NN(c2ccc(C(=O)O)cc2)C(=O)/C1=C\c1ccc([N+](=O)[O-])o1	µM	=	42.8
CC(=N/NC(=S)N1CCCCC1)/C(=N\NC(=S)N1CCCCC1)c1ccccc1	µM	=	5.83
C/C(CC(=O)Nc1ccc(Cl)c(Cl)c1)=N/NC(=O)C[n+]1ccccc1	µM	>	100
COc1ccc2c(c1)c(-c1ccc(-c3cn(S(=O)(=O)c4ccccc4)c4ccc(OC)cc34)s1)cn2S(=O)(=O)c1ccccc1	µM	>	100
